Target: CD73 (Homo sapiens)
Sequence (P21589 27-574): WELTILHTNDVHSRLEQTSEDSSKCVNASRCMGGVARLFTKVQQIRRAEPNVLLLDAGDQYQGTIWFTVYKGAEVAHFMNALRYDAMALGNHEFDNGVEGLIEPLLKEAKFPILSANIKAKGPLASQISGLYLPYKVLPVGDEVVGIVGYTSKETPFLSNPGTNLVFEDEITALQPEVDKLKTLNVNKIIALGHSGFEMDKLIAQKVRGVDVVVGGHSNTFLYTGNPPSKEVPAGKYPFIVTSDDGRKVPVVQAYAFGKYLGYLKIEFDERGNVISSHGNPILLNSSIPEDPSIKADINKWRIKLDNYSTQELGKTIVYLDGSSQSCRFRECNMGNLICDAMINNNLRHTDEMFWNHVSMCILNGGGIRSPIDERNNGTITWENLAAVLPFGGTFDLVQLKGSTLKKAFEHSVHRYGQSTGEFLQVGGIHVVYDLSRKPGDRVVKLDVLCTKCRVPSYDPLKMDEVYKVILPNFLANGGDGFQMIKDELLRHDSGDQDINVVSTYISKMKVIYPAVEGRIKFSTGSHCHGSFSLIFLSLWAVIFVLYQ
Test: Human CD73 Biochemical Assay
Details: 0.05 nM recombinant CD73; AMP 5.56 μM final; 10 min at room temperature; LC/MS adenosine readout; read-out: Enzymatic IC50 against human CD73
reported metric: IC50

Dear colleague, I am looking for the recorded IC50 of the following compound: Cn1nc(O[C@H](c2cc(COC(F)(F)F)ccn2)C(F)F)c2cc(-c3c[nH]c(=O)[nH]c3=O)nnc21 (single isomer, unassigned) [Example 36A]
0.08 nM

Dear colleague, I am looking for the recorded IC50 of the following compound: Cn1nc(O[C@H](c2cc(OCC(F)(F)F)c(F)cn2)C(F)F)c2cc(-c3c[nH]c(=O)[nH]c3=O)nnc21
0.11 nM

Dear colleague, I am looking for the recorded IC50 of the following compound: C[C@@H](OC1CC1)c1cc([C@@H](Oc2nn(C)c3nnc(-c4c[nH]c(=O)[nH]c4=O)cc23)C(F)F)ccn1 (single isomer, unassigned) [Example 37B]
0.09 nM

Dear colleague, I am looking for the recorded IC50 of the following compound: Cn1nc(O[C@H](c2ccnc(OCC(F)(F)F)c2)C(F)F)c2cc(-c3c[nH]c(=O)[nH]c3=O)nnc21
0.06 nM

Dear colleague, I am looking for the recorded IC50 of the following compound: C[C@@H](Nc1cc([C@@H](Oc2nn(C)c3nnc(-c4c[nH]c(=O)[nH]c4=O)cc23)C(F)F)ccn1)C(F)(F)F
0.04 nM

====

Biological target: UniProt P21589
Assay: CD73 Cellular Assay
Type: cell-based
Design: 40 μL of MDA-MB-231 cells (ATCC, HTB-26, breast cancer); host or cells: MDA-MB-231
Settings: MDA-MB-231 cells; 200 μM AMP working solution; 45 min at 37° C.; malachite readout; read-out: Cellular IC50 against CD73
reported metric: pIC50
By convention, pIC50 is the negative base-10 log of a molar concentration.

Dear colleague, I am looking for the recorded pIC50 of the following compound: Cn1nc(O[C@H](c2cc(OCC(F)F)ccn2)C(F)F)c2cc(-c3c[nH]c(=O)[nH]c3=O)nnc21
9.23

Dear colleague, I am looking for the recorded pIC50 of the following compound: Cn1nc(O[C@H](c2ccnc(CN3CCC(F)(F)C3)c2)C(F)F)c2cc(-c3c[nH]c(=O)[nH]c3=O)nnc21
9.20

Dear colleague, I am looking for the recorded pIC50 of the following compound: COCCOc1cc([C@@H](Oc2nn(C)c3nnc(-c4c[nH]c(=O)[nH]c4=O)cc23)C(F)F)ccn1
9.20

Dear colleague, I am looking for the recorded pIC50 of the following compound: C[C@H]1COC[C@@H]1Oc1cc([C@@H](Oc2nn(C)c3nnc(-c4c[nH]c(=O)[nH]c4=O)cc23)C(F)F)ccn1 (stereo in doubt)
9.24

Dear colleague, I am looking for the recorded pIC50 of the following compound: C[C@H](Nc1cc([C@@H](Oc2nn(C)c3nnc(-c4c[nH]c(=O)[nH]c4=O)cc23)C(F)F)ccn1)C(F)(F)F
9.57

Dear colleague, I am looking for the recorded pIC50 of the following compound: Cn1nc(O[C@H](c2ccnc(OCC(C)(F)F)c2)C(F)F)c2cc(-c3c[nH]c(=O)[nH]c3=O)nnc21
9.27

Dear colleague, I am looking for the recorded pIC50 of the following compound: C[C@@H](OC1CC1)c1cc([C@@H](Oc2nn(C)c3nnc(-c4c[nH]c(=O)[nH]c4=O)cc23)C(F)F)ccn1 (single isomer, unassigned) [Example 37B]
9.08

Dear colleague, I am looking for the recorded pIC50 of the following compound: COC1(COc2cc([C@@H](Oc3nn(C)c4nnc(-c5c[nH]c(=O)[nH]c5=O)cc34)C(F)F)ccn2)CC1
9.14

Dear colleague, I am looking for the recorded pIC50 of the following compound: Cn1nc(O[C@H](c2cc(OCC3CC3(F)F)ccn2)C(F)F)c2cc(-c3c[nH]c(=O)[nH]c3=O)nnc21 (stereo partly shown)
9.27

Dear colleague, I am looking for the recorded pIC50 of the following compound: O=c1[nH]cc(-c2cc(N3C[C@H](Oc4ncc(C(F)(F)F)cn4)C(F)(F)C3)c3nccn3n2)c(=O)[nH]1 [Example G351, reference compound]
8.45

Dear colleague, I am looking for the recorded pIC50 of the following compound: Cn1nc(O[C@H](c2cc(OCC(F)(F)F)ccn2)C(F)F)c2cc(-c3c[nH]c(=O)[nH]c3=O)nnc21
9.31

Dear colleague, I am looking for the recorded pIC50 of the following compound: Cn1nc(O[C@H](c2ccnc(N3CCC(F)(F)CC3)c2)C(F)F)c2cc(-c3c[nH]c(=O)[nH]c3=O)nnc21
9.26

Dear colleague, I am looking for the recorded pIC50 of the following compound: Cn1nc(O[C@H](c2ccc(F)c(OCC(F)(F)F)c2)C(F)F)c2cc(-c3c[nH]c(=O)[nH]c3=O)nnc21
9.04
